System: Colon cancer organoid
Method notes: Identification of compartment-specific drug sensitivities in O06 CRC organoid-stroma F06 CAF co-cultures. Organoid is transduced with Lucferase2-P2A-EGFP lentivirus, fibroblast with Renilla-dsRed lentivirus. Dual-Glo Luciferase assay is used to report viability data.
Format: functional, Homo sapiens
Parameters: dose or concentration left out as unconfirmed
Measurement context: Transduced with Renilla-dsRed lentivirus
Readout label: Cell Viability
Output should be the measured figure followed by the unit it is expressed in.

The examples below pair each entry with its known result.
{"columns": ["Item smiles", "Cell Viability"],
 "data": [
  ["CC[C@@H]1C(=O)N(C)c2cnc(Nc3ccc(C(=O)NC4CCN(C)CC4)cc3OC)nc2N1C1CCCC1", "324.743%"],
  ["CN1CCN(C(=O)C(C)(C)c2ccc(C(=O)Nc3cn4cc(-c5ccncc5)ccc4n3)cc2)CC1", "129.967%"]
]}

Notebook: COc1ccccc1-c1cc(Nc2cccc(CS(N)(=O)=O)c2)ncn1 , Cell Viability read as 95.8866%

Notebook: O=C(Nc1ccc(-c2ccnc(Nc3ccc(N4CCOCC4)cc3)n2)cc1)[C@@H]1CCCN1 , Cell Viability read as 96.014%

###

Test system: Colon cancer organoid
Method notes: Identification of compartment-specific drug sensitivities in O20 CRC organoid-stroma F20 CAF co-cultures. Organoid is transduced with Lucferase2-P2A-EGFP lentivirus, fibroblast with Renilla-dsRed lentivirus. Dual-Glo Luciferase assay is used to report viability data.
Type: functional, Homo sapiens
Design: dose or concentration left out as unconfirmed
Measurement context: Transduced with Lucferase2-P2A-EGFP lentivirus
// reported Cell Viability for each item listed
Report the value in % with no unit label.

The examples below pair each entry with its known result.
{"columns": ["Compound", "Cell Viability / %"],
 "data": [
  ["Cl.O=C(O)c1cc(-c2ccc(C3CCNCC3)cc2)c2ccc(-c3ccc(C(F)(F)F)cc3)cc2c1", 106.654],
  ["CC(C)[C@H](C(=O)Nc1ccc(C(=O)NO)cc1)c1ccccc1", 13.9942],
  ["O=C(NC[C@@H]1[C@H]2CN(C(=O)OCc3cc(C(F)(F)F)cc(C(F)(F)F)c3)C[C@@H]12)c1ccc2[nH]nnc2c1", 135.058]
]}

# lookup: COc1cc(C)c(Sc2cnc(NC(=O)c3ccc(CNC(C)C(C)(C)C)cc3)s2)cc1C(=O)N1CCN(C(C)=O)CC1 (centres undefined) on Colon cancer organoid, Cell Viability = 91.6907

###

Test system: Colon cancer organoid
Method notes: Identification of compartment-specific drug sensitivities in O06 CRC organoid-stroma F06 CAF co-cultures. Organoid is transduced with Lucferase2-P2A-EGFP lentivirus, fibroblast with Renilla-dsRed lentivirus. Dual-Glo Luciferase assay is used to report viability data.
Type: functional, Homo sapiens
Parameters: dose or concentration left out as unconfirmed
Measurement context: Transduced with Renilla-dsRed lentivirus
// reported Cell Viability for each item listed
Report the value in % with no unit label.

The examples below pair each entry with its known result.
{"columns": ["Item smiles", "Unit annotation", "Cell Viability"],
 "data": [
  ["Cc1cnc(-c2cc(Cl)ccc2F)cc1-n1c(=O)n(CC(N)=O)c2ccccc21", "%", 66.9379],
  ["O=C(Nc1nc2cccc(-c3ccc(CN4CCS(=O)(=O)CC4)cc3)n2n1)C1CC1", "%", 92.8016],
  ["CC(C)(O)c1cncc(-c2nc3ccc(F)cc3n2C2CC2)c1", "%", 134.058]
]}

Shifting focus to the compound that follows.
Notebook: CC[C@H](CC(=O)O)n1c(=O)c2ncccc2n(Cc2cn(C)c3cc(C)cc(C)c23)c1=O , Cell Viability read as 136.619
